- targetOrSystem: Gal(b1-4)GlcNAc(b1-2)[Gal(b1-4)GlcNAc(b1-6)]Man(a1-6)[GlcNAc(b1-4)][Gal(b1-4)GlcNAc(b1-2)Man(a1-3)]Man(b1-4)GlcNAc(b1-4)GlcNAc
- testName: glycan array binding signal (z-score within array); higher = stronger binding
- studyConditions: glycan notation: IUPAC condensed, linker removed
Shown is part of a subset that was picked to be rich in the strongest signals.
metric: glycan array binding signal (z-score)
Please give the numeric answer without any surrounding text.

Input line: Reported glycan array binding signal (z-score), binder EUL D1A second (Oryza sativa) (protein) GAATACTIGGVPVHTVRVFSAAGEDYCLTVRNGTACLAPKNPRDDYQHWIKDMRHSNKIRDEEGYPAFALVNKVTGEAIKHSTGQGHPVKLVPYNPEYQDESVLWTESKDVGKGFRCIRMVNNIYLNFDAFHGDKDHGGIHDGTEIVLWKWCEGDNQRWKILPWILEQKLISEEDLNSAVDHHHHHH : ____
Output line: -0.799
